# FC (fold change) listing for each entry below
Target: TDP1 (Homo sapiens (Human), UniProt Q9NUW8)
Sequence (Q9NUW8 whole entry): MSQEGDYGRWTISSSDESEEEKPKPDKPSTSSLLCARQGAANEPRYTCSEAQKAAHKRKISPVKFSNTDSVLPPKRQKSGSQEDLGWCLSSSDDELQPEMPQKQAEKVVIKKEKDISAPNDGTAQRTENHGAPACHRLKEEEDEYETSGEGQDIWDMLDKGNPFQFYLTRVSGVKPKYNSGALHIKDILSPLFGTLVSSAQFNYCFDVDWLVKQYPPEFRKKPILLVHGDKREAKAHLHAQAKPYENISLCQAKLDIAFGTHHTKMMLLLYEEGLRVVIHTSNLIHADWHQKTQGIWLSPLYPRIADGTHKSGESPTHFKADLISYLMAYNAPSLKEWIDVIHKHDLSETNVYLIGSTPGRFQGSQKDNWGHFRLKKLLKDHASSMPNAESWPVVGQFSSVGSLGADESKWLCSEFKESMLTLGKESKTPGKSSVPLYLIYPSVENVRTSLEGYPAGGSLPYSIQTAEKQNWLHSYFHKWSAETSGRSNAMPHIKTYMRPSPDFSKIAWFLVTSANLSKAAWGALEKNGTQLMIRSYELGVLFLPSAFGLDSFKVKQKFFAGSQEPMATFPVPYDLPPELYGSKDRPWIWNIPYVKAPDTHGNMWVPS
Experiment: TDP1 gel-based in vitro fluorescence assay
Assay type: biochemical
Details: Table 8, ratio of IC50 TDP2 to TDP1
Output spec: single numeric token, no unit.

Here is how some compounds turned out for FC (fold change).
FC (fold change) of `N#Cc1ccc(-c2ccc(Cn3cc(-c4ccc(-c5nc6cc(-c7ccccc7)ccn6c5Nc5ccc(C(=O)O)cc5)cc4)nn3)cc2)nc1` on TDP1 (Homo sapiens (Human), UniProt Q9NUW8)?
8

FC (fold change) of `N#Cc1ccc(-c2ccc(Cn3cc(COc4ccc(-c5nc6cc(-c7ccccc7)ccn6c5Nc5ccc(C(=O)O)cc5)cc4)nn3)cc2)nc1` on TDP1 (Homo sapiens (Human), UniProt Q9NUW8)?
1

New cases:
FC (fold change) of `N#Cc1ccc(-c2ccc(Cn3cc(-c4ccn5c(Nc6ccc(C(=O)O)cc6)c(-c6ccccc6)nc5c4)nn3)cc2)nc1` on TDP1 (Homo sapiens (Human), UniProt Q9NUW8)?
3

FC (fold change) of `N#Cc1ccc(-c2ccc(Cn3cc(-c4ccc(-c5nc6ccccn6c5Nc5ccc(C(=O)O)cc5)cc4)nn3)cc2)nc1` on TDP1 (Homo sapiens (Human), UniProt Q9NUW8)?
3

FC (fold change) of `N#Cc1ccc(-c2ccc(Cn3cc(-c4ccc5nc(-c6ccccc6)c(Nc6ccc(C(=O)O)cc6)n5c4)nn3)cc2)nc1` on TDP1 (Homo sapiens (Human), UniProt Q9NUW8)?
1
